The measured values listed here are drawn from patent US10752587B2.

biological target: glutathione-S-transferase (GST) tagged LXRalpha LBD (ligand binding domain) (Homo sapiens); construct: purchased Invitrogen pv4655; assay: LanthaScreen TR-FRET Liver X Receptor Coactivator Assay, co-activator recruitment to LXRalpha LBD; type: biochemical; settings: potency (Inflection Point, IP), co-activator recruitment to LXRalpha LBD, in relation to T0901317; read-out: LXR alpha IP
Sequence (Q13133 209-447 limits assumed): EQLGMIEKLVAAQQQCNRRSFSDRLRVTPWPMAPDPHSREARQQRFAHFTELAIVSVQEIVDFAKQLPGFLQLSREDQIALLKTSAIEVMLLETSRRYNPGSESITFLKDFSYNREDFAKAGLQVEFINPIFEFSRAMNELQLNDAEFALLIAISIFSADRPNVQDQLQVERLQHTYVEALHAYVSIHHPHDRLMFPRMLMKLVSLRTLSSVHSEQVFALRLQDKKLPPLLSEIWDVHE
Excerpt: […]
pEC50: −log10 of the molar value.
observable: pEC50

O=C(c1ccc(N2CCC(CC3CCN(C(=O)[C@](O)(c4ccccc4)C(F)(F)F)CC3)CC2)cc1Cl)N1CCC(c2ccncc2)C1 (stereo partly shown) :: 5.99
CN(C)C(=O)c1ccc(N2CCC(CC3CCN(C(=O)OC(C)(C)C)CC3)CC2)cc1Cl :: 6.07
COc1cccc([C@@](O)(C(=O)N2CCC(OC3CCN(c4ccc(C(=O)N(C)C)c(Cl)n4)CC3)CC2)C(F)(F)F)c1 :: 6.05
CNC(=O)c1ccc(N2CCC(CC3CCN(C(=O)C(O)(C(C)C)C(F)(F)F)CC3)CC2)nc1Cl (stereo not shown) :: 5.88

----------
biological target: glutathione-S-transferase (GST) tagged LXRalpha LBD (ligand binding domain) (Homo sapiens); construct: purchased Invitrogen pv4655; assay: LanthaScreen TR-FRET Liver X Receptor Coactivator Assay, co-activator recruitment to LXRalpha LBD; assay type: biochemical; details: efficacy at max dose, in relation to reference dual agonist T0901317; read-out: LXR alpha Activity @ max dose (%)
observable: Emax (%)

Answered cases to consult:
CNC(=O)c1ccc(N2CCC(OC3CCN(C(=O)[C@](O)(c4ccccc4)C(F)(F)F)CC3)CC2)cc1Cl :: 35
CCc1cccc([C@@](O)(C(=O)N2CCC(CC3CCN(c4ccc(C(N)=O)c(Cl)c4)CC3)CC2)C(F)(F)F)c1 :: 23
CN(C)C(=O)c1ccc(N2CCC(CC3CCN(C(=O)C(O)(c4cccc5ccccc45)C(F)(F)F)CC3)CC2)cc1Cl (centres unmarked) :: 0
CNC(=O)c1ccc(N2CCC(CC3CCN(C(=O)C(O)(c4cccnc4)C(F)(F)F)CC3)CC2)nc1Cl (centres unmarked) :: 81
CN(C)C(=O)c1ccc(N2CCC(CC3CCN(C(=O)[C@@](O)(c4cc(F)cc(Cl)c4)C(F)(F)F)CC3)CC2)nc1Cl :: 31
CNC(=O)c1ccc(N2CCC(CC3CCN(C(=O)C(O)(c4cccc(Cl)c4)C(F)(F)F)CC3)CC2)cc1Cl (centres unmarked) :: 27
COc1cccc(C(O)(C(=O)N2CCC(CC3CCN(c4ccc(C(=O)N(C)C)c(Cl)n4)CC3)CC2)C(F)(F)C(F)(F)F)c1 (centres unmarked) :: 19
CN(C)C(=O)c1ccc(N2CCC(CC3CCN(C(=O)C(O)(c4cccc(C(F)(F)F)c4)C(F)(F)F)CC3)CC2)nc1Cl (centres unmarked) :: 21
CNC(=O)c1ccc(N2CCC(CC3CCN(C(=O)[C@](O)(c4cccc(Br)c4)C(F)(F)F)CC3)CC2)nc1Cl :: 51
CN(C)C(=O)c1ccc(N2CCC(CC3CCN(C(=O)[C@](O)(c4cccc(F)c4)C(F)F)CC3)CC2)cc1Cl :: 29

1. CN(C)C(=O)c1ccc(N2CCC(CC3CCN(C(=O)[C@](N)(c4cc(Cl)cc(Cl)c4)C(F)(F)F)CC3)CC2)cc1Cl
2. COc1cc(Cl)cc(C(O)(C(=O)N2CCC(CC3CCN(c4ccc(C(=O)N(C)C)c(Cl)n4)CC3)CC2)C(F)(F)F)c1 (centres unmarked)
*Q* Field: lower recorded Emax (choose 1 or 2 ) Your answer should be the label attached to the chosen record.
*A* 2
